Tested on: SR
Test: NCI tumour cell line growth inhibition, 48 h
Calls of active or inactive are those of the source. Rule as the data show it: active = GI50 up to about 1.1 µM and inactive = higher.

MOLECULE: O=C1c2ccccc2C(=O)C2NC(CCCCCSSCCCCCC3=NC4C(=O)c5ccccc5C(=O)C4N3)=NC12 (centres undefined)
ASSAYED TARGET: SR
GI50: 1.48 µM (inactive)
//
MOLECULE: Cn1cc(S(=O)(=O)NC(=O)Nc2ccc(Cl)cc2)c(=O)c2ccc(F)cc21
ASSAYED TARGET: SR
GI50: > 100 µM (inactive)
//
MOLECULE: C/C(COc1ccccc1)=N\NC(N)=S
ASSAYED TARGET: SR
GI50: > 100 µM (inactive)
//
MOLECULE: COC1C2C=CC(C2)[C@H]1[N+](=O)[O-] (some centres undefined)
ASSAYED TARGET: SR
GI50: > 100 µM (inactive)

----------
System: EKVX
Experiment: NCI tumour cell line growth inhibition, 48 h
The source made the active and inactive calls. Cut-off read from the data, not from the text of the source: active = GI50 up to about 1.1 µM and inactive = higher.
Labels: yes for active, no for inactive

COMPOUND: C=C1C2C[C@@H]3O[C@H]4C[C@H]5O[C@@]6(C[C@@H]7O[C@]8(C[C@H](C)[C@@H]9O[C@@H]%10CC(CO)O[C@@H]%10C[C@@H]9O8)C[C@H](C)[C@@H]7O6)C[C@H]5O[C@H]4[C@H](C)[C@H]3OC(=O)C[C@H]3CC[C@@H]4OC5[C@H]6O[C@]7(CC[C@H]8CC(=C)[C@H](CC[C@@H](C[C@H]1C)O2)O8)CC6O[C@@H]5[C@@H](O7)[C@H]4O3 (stereo partly specified)
ASSAYED TARGET: EKVX
GROUP: yes
//
COMPOUND: OCn1nc2c(C3OCCO3)cc3ccccc3n2c1=S
ASSAYED TARGET: EKVX
GROUP: no
//
COMPOUND: CCCC(=O)OCC(COC(=O)CCC)OC(=O)CCC
ASSAYED TARGET: EKVX
GROUP: no
//
COMPOUND: CC(=O)O[C@H]1CC[C@@]2(C)[C@H](CC[C@@H]3[C@@H]2CC[C@]2(C)[C@@H](c4ccc(=O)oc4)C[C@H]4O[C@]342)C1
ASSAYED TARGET: EKVX
GROUP: yes
//
COMPOUND: CC(=O)OCC1OC(OC2C(CSC3OC(COC(C)=O)C(OC(C)=O)C(OC(C)=O)C3OC(C)=O)OC(OC(C)=O)C(OC(C)=O)C2OC(C)=O)C(OC(C)=O)C(OC(C)=O)C1OC(C)=O (stereo unspecified)
ASSAYED TARGET: EKVX
GROUP: no
//
COMPOUND: Nc1c(S(=O)(=O)c2ccc(Cl)cc2)c2nc3ccccc3nc2n2ccnc12
ASSAYED TARGET: EKVX
GROUP: no

----------
System: MDA-N
Test: NCI tumour cell line growth inhibition, 48 h
Active and inactive are the calls of the source. Cut-off read from the data, not from the text of the source: active = GI50 up to about 1.1 µM and inactive = higher.
MEASURED ENDPOINT: GI50

COMPOUND: COc1ccc(Nc2nnc(-c3nsc4ccccc34)s2)cc1
MEASURED ENDPOINT: GI50
ASSAY VALUE: 76 µM (inactive)
//
COMPOUND: CSc1ccc(/C=C2\N=C(c3ccccc3)N(c3nc4c(Cl)cc(Cl)cc4s3)C2=O)cc1
MEASURED ENDPOINT: GI50
ASSAY VALUE: 17 µM (inactive)
//
COMPOUND: O=c1c(Cc2c(O)ccc3ccccc23)nnc2sc(-c3nn4c(=O)c(Cc5c(O)ccc6ccccc56)nnc4s3)nn12
MEASURED ENDPOINT: GI50
ASSAY VALUE: > 100 µM (inactive)
//
COMPOUND: Cc1c(Cc2ccccc2)n(COCCCO)c(=O)[nH]c1=O
MEASURED ENDPOINT: GI50
ASSAY VALUE: > 100 µM (inactive)
//
COMPOUND: Cc1ccc2nc(N/N=C/c3sccc3C)cc(C)c2c1
MEASURED ENDPOINT: GI50
ASSAY VALUE: > 100 µM (inactive)
//
COMPOUND: Cc1ccc(S(=O)(=O)N/N=C2\C3CC4CC(C3)C2C4)cc1 (stereo not drawn)
MEASURED ENDPOINT: GI50
ASSAY VALUE: > 100 µM (inactive)
//
COMPOUND: Nc1ccc(Oc2ccc(C34CC5CC(C3)CC(c3ccc(Oc6ccc(N)cc6)cc3)(C5)C4)cc2)cc1
MEASURED ENDPOINT: GI50
ASSAY VALUE: 8.71 µM (inactive)
//
COMPOUND: O=C(/C=C/c1ccccc1)CCN1CCCCC1
MEASURED ENDPOINT: GI50
ASSAY VALUE: 24.9 µM (inactive)
